Origin of values: the RNAGym collection of RNA variant scans (doi:10.1101/gr.219683.116)

B1: mRNA-splicing (parent)
chain: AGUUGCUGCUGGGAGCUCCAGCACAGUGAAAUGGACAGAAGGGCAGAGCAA

Variants of: B1
EXPERIMENT_DESCRIPTION: exon inclusion enrichment index; higher = more inclusion; WT1 exon 5 minigene, HEK293
OUTCOME_MEASURE: exon inclusion enrichment index
Give bare numbers.

For this variant ( G5A C6U U7A G8U C9A A29C A30C ), measured exon inclusion enrichment index is 0.142

Consider the following items and state reported exon inclusion enrichment index for each.
1. G5C C6U G8C C9U U10C U17G C18U
2. G5C C6U G8C C9U U10C G42U G43C
3. G5A C6G U7G C9A G28U A29C
4. G5C C6A U7C G8A U10A A30U A31U
5. G5A U7C G8A C9U U10C
6. G5A C6G U7G C9A C22G A23G

Resp:
1. 1.64
2. 1.23
3. 0.000797
4. 0.0758
5. 2.24
6. 0.00134
